measuredTarget: Alcohol dehydrogenase (Equus caballus, UniProt P00327+P00328)
assayName: Inhibitory activity against horse liver alcohol dehydrogenase (ADH)
readoutName: Log 1/Ki
# print the numeric value only

Use the examples below as a reference point.
NC(=O)Cc1ccc(OCc2ccccc2)cc1 : 5.7
NC(=O)Cc1ccc(Br)cc1 : 4.7
CC(C)C(N)=O [ISOBUTYRAMIDE] : 3.77

In the following, a different compound is considered.
Given CCOc1ccc(CC(N)=O)cc1 , state its recorded Log 1/Ki. 4.1
